The entries below come with measured IC50 values attached.
molecular target: IDH1-R132H recombinant protein (Homo sapiens (Human), UniProt O75874, R132H); assay: IDH1-R132H enzymatic assay; assay type: biochemical; conditions: inhibition of NADPH consumption, diaphorase/resazurin readout; read-out: Enzyme IDH1 R132H Range IC50
Sequence (O75874 whole entry R132H): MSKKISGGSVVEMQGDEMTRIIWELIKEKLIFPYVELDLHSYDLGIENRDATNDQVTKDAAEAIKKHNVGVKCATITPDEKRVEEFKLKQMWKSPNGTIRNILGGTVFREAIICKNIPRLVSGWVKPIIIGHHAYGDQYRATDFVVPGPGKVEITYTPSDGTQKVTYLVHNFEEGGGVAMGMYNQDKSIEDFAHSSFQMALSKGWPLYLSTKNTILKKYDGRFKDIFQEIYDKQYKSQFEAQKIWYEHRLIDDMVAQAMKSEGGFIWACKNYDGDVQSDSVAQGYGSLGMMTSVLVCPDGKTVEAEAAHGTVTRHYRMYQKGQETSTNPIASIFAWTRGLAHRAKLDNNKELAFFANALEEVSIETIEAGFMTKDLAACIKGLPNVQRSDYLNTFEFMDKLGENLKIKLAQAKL

> print(dat)
                                   compound  recorded.metric    result
1  CC(C)C1CCCN1c1nc(NCc2cc3cc(Cl)ccc3[nH]c2=O)ccc1C#N (stereo not shown)             IC50   > 10 µM
2  COc1cc2[nH]c(=O)c([C@H](C)Nc3ccc(C#N)c(OC)n3)cc2cc1Cl             IC50  < 0.1 µM
3  N#Cc1ccc(NCc2cc3cc(Cl)ccc3[nH]c2=O)nc1Cl             IC50   > 10 µM

Query compound follows.
Name the recorded IC50 of the compound listed here: Cc1cn(-c2ccnc(N[C@@H](C)c3cc4cc(Cl)ccc4[nH]c3=O)c2F)cn1
1 to 10 µM
